assay: Acute intravenous toxicity in rats (LD50); conditions: rat, in vivo
VALUE_KIND: LD50

// returns reported LD50 for input O=C(O)CC[C@@H](NC(=O)c1cc(Cl)cc(Cl)c1)C(=O)N1CCC2(CCCC2)CC1 [Compound C5]
~400 mg/kg
